- Read-out: Human Leukocyte Antigen - DR isotype (HLADR), HLA-DRA (gene 3122)
- test-name: BSK_3C_HLADR: BioMAP Diversity Plus: 3C Assay for Human Leukocyte Antigen - DR isotype (HLADR) Biomarker Activity (AID 2283019)
- condition: primary human endothelial cells (HUVEC); actives raise or lower the signal
The source made the active and inactive calls. Rule for the calls: active = hit-call score of the fitted dose curve at least 0.9, where 1 is the maximum; inactive = score below 0.9.
assay-readout: AC50

| molecule | AC50 |
| --- | --- |
| C/C=C\C/C=C/CCCCCCCCOC(C)=O | 27 µM (active) |
| C#CC1(O)CC[C@H]2[C@@H]3CCC4=CCCC[C@@H]4[C@H]3CC[C@@]21C (stereo partly drawn) | 10.8 µM (active) |
| C=CCOc1c(Br)cc(Br)cc1Br | 24.8 µM (active) |
| O=c1c2ccccc2oc2ccccc12 | inactive |
| O=C(Cl)c1cc(C(=O)Cl)cc(C(=O)Cl)c1 | 10.5 µM (active) |
| CCCCCCCCCCCCCCCC[N+](C)(C)CC | 0.932 µM (active) |

Item under review: `CC(C)(c1cc(Br)c(OCCO)c(Br)c1)c1cc(Br)c(OCCO)c(Br)c1` . Reported AC50?
18.6 µM (active)

And the next one, `CC(C)C(=O)C(C)C` ?
inactive

And the next one, `O=C(c1ccc(O)cc1)c1ccc(O)cc1O` ?
inactive

And the next one, `CCO[Si](C)(OCC)OCC` ?
inactive

And the next one, C=CC(=O)OCC(Br)CBr (stereo not drawn) ?
5.44 µM (active)

And the next one, `O=C(Nc1ccccc1SSc1ccccc1NC(=O)c1ccccc1)c1ccccc1` ?
10 µM (active)

And the next one, `c1ccc2c(c1)ccc1cc3c(ccc4ccccc43)cc12` ?
inactive

---

- Read-out: Plasminogen activator inhibitor-1 (PAI1), SERPINE1 (gene 5054)
- test-name: BSK_hDFCGF_PAI1: BioMAP Diversity Plus: hDFCGF Assay for Plasminogen activator inhibitor-1 (PAI1) Biomarker Activity (AID 2283066)
- condition: primary human foreskin fibroblasts; actives raise or lower the signal
- Method: BSK_hDFCGF is a cell-based, multiplexed-readout assay that uses foreskin fibroblast, a human skin primary cell, with measurements taken at 24 hours after chemical dosing in a 96-well plate.BSK_hDFCGF_PAI1 is an assay component measured in the BSK_hDFCGF assay. It measures PAI-1 antibody related to regulation of gene expression using ELISA technology.Data from the assay component BSK_hDFCGF_PAI1 was analyzed into 1 assay endpoint. […]
The source made the active and inactive calls. How the source made its calls: active means hit-call score of the fitted dose curve at least 0.9, where 1 is the maximum; inactive means score below 0.9.
Your answer must be one of the following: class 1 for active, class 0 for inactive

| compound | label-class |
| --- | --- |
| C#CC1(O)CC[C@H]2[C@@H]3CCC4=CCCC[C@@H]4[C@H]3CC[C@@]21C (some centres undefined) | class 1 |
| CCOc1nc(F)cc2nc(S(=O)(=O)Nc3c(Cl)cccc3C(=O)OC)nn12 | class 0 |

Given `CCO[Si](C)(OCC)OCC` , state the outcome it received in this test.
class 0

And the next one, CN1C(=O)N(C)C(O)C1O (centres undefined) ?
class 0

And the next one, `C/C=C\C/C=C/CCCCCCCCOC(C)=O` ?
class 1

And the next one, `O=Nc1ccc(O)cc1` ?
class 0

And the next one, `C=CC=CC=CCCCCC` ?
class 0

---

- measured-target: Transcriptional activator Myb (Homo sapiens)
- test-name: ATG_Myb_CIS: Attagene CIS-FACTORIAL HepG2 Assay for human Myeloblastosis (Myb) Proto-Oncogene Transcription Factor (AID 2282986)
- condition: HepG2 Attagene CIS-FACTORIAL Myb reporter transcription; actives raise or lower the signal
Calls of active or inactive are those of the source. The calls were made as follows: active = hit-call score of the fitted dose curve at least 0.9, where 1 is the maximum; inactive = score below 0.9.
Your answer must be one of the following: active, inactive

| compound | label-class |
| --- | --- |
| C1=CCCC1 | inactive |
| O=C(c1ccc(O)cc1)c1ccc(O)cc1O | inactive |
| [Cl][Nd]([Cl])[Cl] | inactive |

Given CO[Si](CCC1CCC2OC2C1)(OC)OC (stereo unspecified) , state the outcome it received in this test.
inactive

And the next one, `O=C1c2ccccc2C(=O)C1c1nc2ccccc2c(Br)c1O` ?
inactive

And the next one, `OCCCS` ?
inactive

And the next one, `O=C1C=CC(=O)O1` ?
inactive

And the next one, `Cc1ccc(C(C)c2ccc(C)c(C)c2)cc1C` ?
active

And the next one, `CCCCCCCCCCOC(C)=O` ?
inactive

And the next one, `COC(=O)c1c(C)cc(O)c(C)c1O` ?
inactive

---

- Read-out: Pselectin, SELP (gene 6403)
- test-name: BSK_4H_Pselectin: BioMAP Diversity Plus: 4H Assay for Pselectin Biomarker Activity (AID 2283026)
- condition: primary human endothelial cells (HUVEC); actives raise or lower the signal
Calls of active or inactive are those of the source. Rule for the calls: active = hit-call score of the fitted dose curve at least 0.9, where 1 is the maximum; inactive = score below 0.9.
assay-readout: AC50

// below: answered compounds
| compound-structure | AC50 |
| --- | --- |
| CCCCNc1ccc(NCCCC)c2c1C(=O)c1ccccc1C2=O | inactive |
| O=C(Nc1ccccc1SSc1ccccc1NC(=O)c1ccccc1)c1ccccc1 | inactive |
| CCCCCCCCCCCCCCCC[N+](C)(C)CC | 6.2 µM (active) |
| CCO[Si](C)(OCC)OCC | inactive |
| O=c1c2ccccc2oc2ccccc12 | inactive |
| S=C(NC1CCCCC1)NC1CCCCC1 | inactive |
| O=Nc1ccc(O)cc1 | inactive |

Then there is this compound:
Item under review: `c1ccc2c(c1)ccc1ncccc12` . Reported AC50?
20 µM (active)

---

- Read-out: Tumor necrosis factor (Homo sapiens) (UniProt P01375)
- Sequence (P01375 whole entry, looked up): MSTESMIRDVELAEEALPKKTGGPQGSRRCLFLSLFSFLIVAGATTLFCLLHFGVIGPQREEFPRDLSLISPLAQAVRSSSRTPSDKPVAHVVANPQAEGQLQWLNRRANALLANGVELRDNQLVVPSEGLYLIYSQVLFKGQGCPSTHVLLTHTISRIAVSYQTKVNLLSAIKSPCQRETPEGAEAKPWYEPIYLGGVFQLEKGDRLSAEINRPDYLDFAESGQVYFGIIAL
- test-name: BSK_BT_xTNFa: BioMAP Diversity Plus: BT Assay for Tumor necrosis factor alpha (TNF-alpha) Biomarker Activity (AID 2284230)
- condition: primary human B cells with PBMC
Activity calls are given as the source filed them. The calls were made as follows: active = hit-call score of the fitted dose curve at least 0.9, where 1 is the maximum; inactive = score below 0.9.
Your answer must be one of the following: active, inactive

| molecule | label-class |
| --- | --- |
| CCO[Si](CCCN=C=O)(OCC)OCC | inactive |
| O=c1c2ccccc2oc2ccccc12 | inactive |
| CCCCC(CC)COC(=O)c1ccccc1O (stereo not drawn) | inactive |
| N#[N+]c1ccc2c(S(=O)(=O)[O-])cccc2c1O | inactive |
| c1ccc2c(c1)ccc1cc3c(ccc4ccccc43)cc12 | inactive |

Given `CCOc1nc(F)cc2nc(S(=O)(=O)Nc3c(Cl)cccc3C(=O)OC)nn12` , state the outcome it received in this test.
inactive

And the next one, `C/C=C\C/C=C/CCCCCCCCOC(C)=O` ?
active

And the next one, `COc1ccc2nc(N)sc2c1` ?
inactive

And the next one, `O=C(Nc1ccccc1SSc1ccccc1NC(=O)c1ccccc1)c1ccccc1` ?
active

---

- test-name: BSK_SAg_SRB: Viability Assessment in the BioMAP Diversity Plus: SAg Assay (AID 2283096);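 note: cells read one day after compound addition; hits may be either gain or loss of signal compared with DMSO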
- condition: primary human HUVEC with PBMC
Activity calls are given as the source filed them. The calls were made as follows: active = hit-call score of the fitted dose curve at least 0.9, where 1 is the maximum; inactive = score below 0.9.
Your answer must be one of the following: 1 (yes) (active), 0 (no) (inactive)

Some solved entries appear below for comparison.
| compound | label-class |
| --- | --- |
| C#CC1(O)CC[C@H]2[C@@H]3CCC4=CCCC[C@@H]4[C@H]3CC[C@@]21C (some centres not stated) | 1 (yes) |
| C=CCOCC(O)CCl (configuration not stated) | 0 (no) |

Given `COc1ccc2nc(N)sc2c1` , state the outcome it received in this test.
0 (no)

And the next one, `CCOc1nc(F)cc2nc(S(=O)(=O)Nc3c(Cl)cccc3C(=O)OC)nn12` ?
0 (no)

And the next one, CN1C(=O)N(C)C(O)C1O (configuration not stated) ?
0 (no)

And the next one, `O=C(c1ccc(O)cc1)c1ccc(O)cc1O` ?
0 (no)

And the next one, `CCO[Si](CCCN=C=O)(OCC)OCC` ?
0 (no)

---

- Read-out: Matrix Metallopeptidase 9 (MMP9), MMP9 (gene 4318)
- test-name: BSK_KF3CT_MMP9: BioMAP Diversity Plus: KF3CT Assay for Matrix Metallopeptidase 9 (MMP9) Biomarker Activity (AID 2283074);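 for AC50: MMP9 protein level quantified by ELISA in the co-culture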
- condition: primary human keratinocytes with fibroblasts; actives raise or lower the signal
The source made the active and inactive calls. Rule for the calls: active = hit-call score of the fitted dose curve at least 0.9, where 1 is the maximum; inactive = score below 0.9.
assay-readout: AC50

// below: answered compounds
| compound | result |
| --- | --- |
| C=CC(=O)OCC(Br)CBr (stereo not given) | 28.1 µM (active) |
| c1ccc2c(c1)ccc1cc3c(ccc4ccccc43)cc12 | inactive |
| CCO[Si](CCCN=C=O)(OCC)OCC | inactive |
| C=CCOc1c(Br)cc(Br)cc1Br | 20 µM (active) |

Then there is this compound:
Item under review: CCCCC(CC)COC(=O)c1ccccc1O (stereo not given) . Reported AC50?
inactive

---

- test-name: ATG_VDRE_CIS: Attagene CIS-FACTORIAL HepG2 Assay for human Vitamin D Receptor Element (VDRE) (AID 2282968)
- condition: HepG2 VDRE cis-reporter transcription, actives raise or lower the signal
Active and inactive are the calls of the source. The calls were made as follows: active = hit-call score of the fitted dose curve at least 0.9, where 1 is the maximum; inactive = score below 0.9.
Your answer must be one of the following: True for active, False for inactive

Some solved entries appear below for comparison.
| molecule | label-class |
| --- | --- |
| CCC(Cc1ccccc1)(C(=O)c1ccc(N2CCOCC2)cc1)N(C)C (centres undefined) | True |
| C1CN(SSN2CCOCC2)CCO1 | False |
| C=CC(C)(CCC=C(C)C)OC(=O)C(C)C (centres undefined) | False |
| CC1(C)S[C@@H]2[C@H](NC(=O)COc3ccccc3)C(=O)N2[C@H]1C(=O)O | False |
| O=S1(=O)OC(c2ccc(O)cc2)(c2ccc(O)cc2)c2ccccc21 | False |
| CCN(CC#N)c1cccc(C)c1 | False |
| NC(=O)N=NC(N)=O | False |
| OCCNCc1ccccc1 | False |
| O=C1C(N(CO)C(=O)NCO)N(CO)C(=O)N1CO (centres undefined) | False |
| O=CC1CC1 | False |

Given `CC(C)(C)C(=O)C=Cc1ccc(Cl)cc1` , state the outcome it received in this test.
True

And the next one, `OCCCS` ?
False

And the next one, `Cn1c(=O)[nH]c2ncn(C)c2c1=O` ?
False

And the next one, `CCOC(=O)[C@H](C)O` ?
False

Values from PubChem BioAssay (EPA / NIEHS)
